B1: UBE2R2 (parent)
chain: DPQSGELPSERWNPTQNVRTILLS

Variants of: B1
protocol_description: protein stability index of a GFP-peptide fusion (GPS, HEK-293T) (PSI 1-6); higher = more stable;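 note: lentivirally expressed fusions sorted by FACS into six bins by GFP to DsRed ratio, PSI derived from sequencing read proportions per bin multiplied by bin number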
measurement_conditions: c terminus: a fixed tail appended
measure_name: protein stability index

{"changes": "L23P", "experimental_value": 4.34}
{"changes": "P8I", "experimental_value": 2.69}
{"changes": "E6H", "experimental_value": 3.25}
{"changes": "R19Y", "experimental_value": 2.11}
{"changes": "L23C", "experimental_value": 4.63}
{"changes": "L7D", "experimental_value": 4.51}
{"changes": "L7T", "experimental_value": 4.12}
{"changes": "D1C", "experimental_value": 3.93}
{"changes": "V18Q", "experimental_value": 4.2}
{"changes": "T20A", "experimental_value": 3.64}
{"changes": "G5E", "experimental_value": 4.5}
{"changes": "L22Y", "experimental_value": 2.89}
{"changes": "L7Q", "experimental_value": 4.32}
{"changes": "L23F", "experimental_value": 3.44}
{"changes": "N17M", "experimental_value": 2.39}
{"changes": "Q3L", "experimental_value": 3.65}
{"changes": "R11E", "experimental_value": 4.44}
{"changes": "P8V", "experimental_value": 3.33}
{"changes": "N13C", "experimental_value": 2.78}
{"changes": "Q16E", "experimental_value": 2.95}
{"changes": "V18F", "experimental_value": 3.61}
{"changes": "N13I", "experimental_value": 2.87}
